Taken from paper PMC11099041.

# procedure_details: Mouse pharmacokinetics in CD-1 mice (blood, kidney, liver, lung)
# Format: in vivo
# condition_label: male, mouse, kidney, liver, lung; CD-1 mice IV; dose = c0, matrix = c1 of the line
experimental_readout: Tmax (h)
Write it as a number; the unit h goes unstated.

Entry Cc1ncsc1-c1ccc(C(C)NC(=O)C2CC(O)CN2C(=O)C(c2cc(N3CCC(CN4CCC(OC5CC(Oc6cc(N7C8CCC7CN(c7cc(-c9ccccc9O)nnc7N)C8)ccn6)C5)CC4)CC3)no2)C(C)C)cc1 (stereo not shown) : reported Tmax = ?
4

* * *

# measured_on: CYP2C19 (Homo sapiens)
# Construct: phosphate buffer (100 mM, pH 7.4) containing human liver microsomes (HLM); from tissue; host or cells: human liver microsomes
# Sequence (P33261 whole entry): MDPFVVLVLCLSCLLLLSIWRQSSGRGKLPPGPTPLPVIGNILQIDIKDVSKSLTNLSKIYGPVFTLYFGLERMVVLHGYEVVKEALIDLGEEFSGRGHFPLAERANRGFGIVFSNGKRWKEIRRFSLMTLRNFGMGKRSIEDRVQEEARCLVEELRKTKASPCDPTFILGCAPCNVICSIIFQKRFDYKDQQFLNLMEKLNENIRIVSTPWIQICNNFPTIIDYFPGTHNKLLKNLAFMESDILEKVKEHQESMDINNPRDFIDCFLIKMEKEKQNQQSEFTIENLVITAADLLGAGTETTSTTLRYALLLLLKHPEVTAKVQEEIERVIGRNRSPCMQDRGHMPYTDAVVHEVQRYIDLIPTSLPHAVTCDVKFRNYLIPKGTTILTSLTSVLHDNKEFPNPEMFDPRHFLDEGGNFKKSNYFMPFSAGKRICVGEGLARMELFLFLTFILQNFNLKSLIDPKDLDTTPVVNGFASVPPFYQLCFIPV
# procedure_details: Reversible P450 inhibition in HLM
# Type: biochemical
# condition_label: substrate Mephenytoin
experimental_readout: IC50

Entry Cc1ncsc1-c1ccc(C(C)NC(=O)C2CC(O)CN2C(=O)C(c2cc(N3CCC(CN4CCC(OC5CC(Oc6cc(N7C8CCC7CN(c7cc(-c9ccccc9O)nnc7N)C8)ccn6)C5)CC4)CC3)no2)C(C)C)cc1 (stereo not shown) [A947] : reported IC50 = ?
~3 µM
